Measured values drawn from patent US6017962A for this set.

- Tested on: NIH-3T3
- experiment_summary: Cytotoxicity of BCNU
- Type: cell-based
- test_context: Mus musculus, NIH3T3; NIH-3T3; MET^- HCY^+ culture; 1 h BCNU, 4 days; read-out: IC50 (HCY)
- Method: The cytotoxicity of BCNU on cultured cells in MET^+ HCY^+ and MET^- HCY^+ was measured by a modification of the method of Branch et. al. (1993) as follows: methionine-dependent cells were seeded and cultured in MET^+ HCY^- in 35 mm petri dishes until they were nearly confluent. […] At that time cells were trypsinized and counted using a Coulter-Counter (Coulter Electronics, Hialeah Fla.). […]
measured_attribute: IC50 (µM)
Hi! Could you send only the number? It should be in µM, unit omitted.

Identify measured IC50 associated with O=NN(CCCl)C(=O)NCCCl
40
